Molecular target: recombinant human KLK5 (Homo sapiens, UniProt Q9Y337)
Sequence (Q9Y337 23-293): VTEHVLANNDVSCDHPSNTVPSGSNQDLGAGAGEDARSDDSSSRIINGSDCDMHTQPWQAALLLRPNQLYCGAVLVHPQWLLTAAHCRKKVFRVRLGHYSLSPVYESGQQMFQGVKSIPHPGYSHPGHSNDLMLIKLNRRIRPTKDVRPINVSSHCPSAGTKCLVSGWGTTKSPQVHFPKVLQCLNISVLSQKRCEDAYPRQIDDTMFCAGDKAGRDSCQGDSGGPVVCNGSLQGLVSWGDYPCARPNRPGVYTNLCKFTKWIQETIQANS
Assay: Kallikrein (KLK) 5 enzymatic assay (Boc-VPR-AMC fluorogenic substrate)
Conditions: recombinant human KLK5 0.1 μg/well, Boc-VPR-AMC 100 μM, pH 7.5, room temperature, 1% DMSO; tested a minimum of three times
Below is a list of entries, each paired with its recorded IC50 value.

* Cc1cccc(CC(=O)O)c1OCc1nn(C2CCC2)c2ccc(-c3ccc4ccnc(N)c4c3)cc12 [Compound 159g] | 1000 to 10000 nM
* Nc1nccc2c(-c3ccc4nn(C5CCCC5)c(COc5ccccc5CC(=O)O)c4c3)cccc12 [Compound 21e] | < 1000 nM
* CC(C)(C)OC(=O)N1CC(Cn2nc(COc3ccccc3CC(=O)O)c3cc(-c4ccc5ccnc(N)c5c4)ccc32)C1 [Compound 194g] | < 1000 nM
* Nc1nccc2c(-c3ccc4nn([C@H]5CCN(CC(=O)O)C5)c(COc5ccccc5CC(=O)O)c4c3)cccc12 [Compound 114d] | < 1000 nM
* CC(C)n1nc(COc2ccccc2CC(=O)O)c2cc(-c3cccc(-c4c[nH]nc4N)c3)ccc21 [Compound 45c] | > 10000 nM
* Nc1nccc2ccc(-c3ccc4c(c3)c(COc3ccccc3CC(=O)O)nn4C3CC3)cc12 [Compound 60b] | < 1000 nM

Query string: Could you share which IC50 value was measured for CCCCn1nc(COc2ccccc2CC(=O)O)c2cc(-c3ccc4ccnc(N)c4c3)ccc21 [Compound 184e] ?
Result string: < 1000 nM

Query string: Could you share which IC50 value was measured for Nc1nccc2ccc(-c3ccc4nn(C5CCC5)c(COc5cc(C(F)(F)F)ccc5CC(=O)O)c4c3)cc12 [Compound 151d] ?
Result string: > 10000 nM

Query string: Could you share which IC50 value was measured for CC(C)Cn1nc(COc2ccccc2CC(=O)O)c2cc(-c3ccc4ccnc(N)c4c3)ccc21 [Compound 188e] ?
Result string: < 1000 nM

Query string: Could you share which IC50 value was measured for Nc1nccc2c(-c3ccc4nn(C5CCCCC5)c(COc5ccccc5CC(=O)O)c4c3)cccc12 [Compound 14f] ?
Result string: 1000 to 10000 nM

Query string: Could you share which IC50 value was measured for COc1ccc(CC(=O)O)c(OCc2nn(C)c3ccc(-c4cccc5c(N)nccc45)cc23)c1 [Compound 72b] ?
Result string: < 1000 nM

Query string: Could you share which IC50 value was measured for COCCN1CC[C@H](n2nc3ccc(-c4ccc5ccnc(N)c5c4)cc3c2COc2ccccc2CC(=O)O)C1 [Compound 118b] ?
Result string: 1000 to 10000 nM

Query string: Could you share which IC50 value was measured for `CC(C)n1nc(COc2ccccc2CC(=O)O)c2cc(-c3ccc(C(=N)N)cc3)ccc21` ?
Result string: > 10000 nM

Query string: Could you share which IC50 value was measured for Nc1nccc2c(-c3ccc4c(c3)C(COc3ccccc3CC(=O)O)=CC43CCCC3)cccc12 [Compound 400f] ?
Result string: < 1000 nM

Query string: Could you share which IC50 value was measured for Nc1nccc2c(-c3ccc4c(c3)c(COc3ccccc3CC(=O)O)nn4C3CCCC3)cccc12 [Compound 223b] ?
Result string: < 1000 nM
